- assay.notes: Equilibrium solubility of drug substance in media with solubilizer (excess drug, rotated 48 hours at room temperature, filtered, HPLC)
- Format: physicochemical
- study.conditions: aqueous media with solubilizer, aqueous with cosolvent or surfactant or cyclodextrin, thermodynamic from solid, 10% (w/v) HP-β-cyclodextrin, aqueous; read-out: Oxcarbazepine Solubility

compound: NC(=O)N1c2ccccc2CC(=O)c2ccccc21 [Oxcarbazepine]
solubility at 48 h [µg/mL]: 670

###

- assay.notes: Equilibrium solubility of drug substance in media with solubilizer (excess drug, rotated 48 hours at room temperature, filtered, HPLC)
- Type: physicochemical
- study.conditions: 2% (w/v) Cavasol W7M in water, aqueous with cosolvent or surfactant or cyclodextrin, thermodynamic from solid, 2% (w/v) Cavasol W7M, aqueous; read-out: Carbamazepine Solubility
quantity.kind: solubility at 48 h (µg/mL)

compound: NC(=O)N1c2ccccc2C=Cc2ccccc21 [Carbamazepine]
measurement.units: µg/mL
observed.measurement: 1070

###

- assay.notes: Equilibrium solubility of drug substance in media with solubilizer (excess drug, rotated 48 hours at room temperature, filtered, HPLC)
- Assay type: physicochemical
- study.conditions: PEG 400, organic solvent or mixture, thermodynamic from solid, vehicle: PEG 400; read-out: Carbamezepine Solubility
- Method: An excess of drug substance was added to 20 ml glass liquid scintillation vials (Kimble Glass Inc., Vineland, N.J.) containing 10 ml of the media with a specific amount of solubilizer. […] The samples were filtered through a 0.45 μm filter (Acrodisc CR PTFE membrane filter, Gelman Sciences, Ann Arbor, Mich.). […]

molecule: NC(=O)N1c2ccccc2C=Cc2ccccc21 [Carbamazepine]
solubility at 48 h [mg/mL]: 77.9

###

- assay.notes: Equilibrium solubility of drug substance in media with solubilizer (excess drug, rotated 48 hours at room temperature, filtered, HPLC)
- Assay type: physicochemical
- study.conditions: 5% (w/v) HP-β-cyclodextrin in water, aqueous with cosolvent or surfactant or cyclodextrin, thermodynamic from solid, 5% (w/v) HP-β-cyclodextrin, aqueous; read-out: Carbamazepine Solubility

compound: NC(=O)N1c2ccccc2C=Cc2ccccc21 [Carbamazepine]
solubility at 48 h [µg/mL]: 2880

###

- assay.notes: Equilibrium solubility of drug substance in media with solubilizer (excess drug, rotated 48 hours at room temperature, filtered, HPLC)
- Assay type: physicochemical
- study.conditions: 2% (w/v) Cavasol W7M, aqueous, aqueous with cosolvent or surfactant or cyclodextrin, thermodynamic from solid, 2% (w/v) Cavasol W7M, aqueous; read-out: Oxcarbazepine Solubility

molecule: NC(=O)N1c2ccccc2CC(=O)c2ccccc21 [Oxcarbazepine]
solubility at 48 h / µg/mL: 240

###

- assay.notes: Equilibrium solubility of drug substance in media with solubilizer (excess drug, rotated 48 hours at room temperature, filtered, HPLC)
- Assay type: physicochemical
- study.conditions: 7.5% (w/v) HP-β-cyclodextrin in water, aqueous with cosolvent or surfactant or cyclodextrin, thermodynamic from solid, 7.5% (w/v) HP-β-cyclodextrin, aqueous; read-out: Carbamazepine Solubility

molecule: NC(=O)N1c2ccccc2C=Cc2ccccc21 [Carbamazepine]
solubility at 48 h [mg/mL]: 4.87

###

- assay.notes: Equilibrium solubility of drug substance in media with solubilizer (excess drug, rotated 48 hours at room temperature, filtered, HPLC)
- Format: physicochemical
- study.conditions: aqueous media with solubilizer, aqueous with cosolvent or surfactant or cyclodextrin, thermodynamic from solid, 5% (w/v) Cavasol W7M, aqueous; read-out: Oxcarbazepine Solubility

compound: NC(=O)N1c2ccccc2CC(=O)c2ccccc21 [Oxcarbazepine]
measurement.units: µg/mL
solubility at 48 h: 490

###

- assay.notes: Equilibrium solubility of drug substance in media with solubilizer (excess drug, rotated 48 hours at room temperature, filtered, HPLC)
- Format: physicochemical
- study.conditions: 20% (w/v) Cavasol W7M in water, aqueous with cosolvent or surfactant or cyclodextrin, thermodynamic from solid, 20% (w/v) Cavasol W7M, aqueous; read-out: Carbamazepine Solubility
quantity.kind: solubility at 48 h

compound: NC(=O)N1c2ccccc2C=Cc2ccccc21 [Carbamazepine]
observed.measurement: 10.9 mg/mL

###

- assay.notes: Equilibrium solubility of drug substance in media with solubilizer (excess drug, rotated 48 hours at room temperature, filtered, HPLC)
- Type: physicochemical
- study.conditions: 2% (w/v) Cryst. Methylated β-CD, aqueous, aqueous with cosolvent or surfactant or cyclodextrin, thermodynamic from solid, 2% (w/v) Cryst. Methylated β-CD, aqueous; read-out: Oxcarbazepine Solubility
- Procedure: An excess of drug substance was added to 20 ml glass liquid scintillation vials (Kimble Glass Inc., Vineland, N.J.) containing 10 ml of the media with a specific amount of solubilizer. […] The samples were filtered through a 0.45 μm filter (Acrodisc CR PTFE membrane filter, Gelman Sciences, Ann Arbor, Mich.). […]

compound: NC(=O)N1c2ccccc2CC(=O)c2ccccc21 [Oxcarbazepine]
solubility at 48 h / µg/mL: 310

###

- assay.notes: Equilibrium solubility of drug substance in media with solubilizer (excess drug, rotated 48 hours at room temperature, filtered, HPLC)
- Assay type: physicochemical
- study.conditions: aqueous media with solubilizer, aqueous with cosolvent or surfactant or cyclodextrin, thermodynamic from solid, 10% (w/v) Cryst. Methylated β-CD, aqueous; read-out: Oxcarbazepine Solubility

compound: NC(=O)N1c2ccccc2CC(=O)c2ccccc21 [Oxcarbazepine]
solubility at 48 h / µg/mL: 1490

###

- assay.notes: Equilibrium solubility of drug substance in media with solubilizer (excess drug, rotated 48 hours at room temperature, filtered, HPLC)
- Type: physicochemical
- study.conditions: 10% (w/v) crystalline methylated β-cyclodextrin in water, aqueous with cosolvent or surfactant or cyclodextrin, thermodynamic from solid, 10% (w/v) Cryst. Methylated β-CD, aqueous; read-out: Carbamazepine Solubility
quantity.kind: solubility at 48 h (µg/mL)

molecule: NC(=O)N1c2ccccc2C=Cc2ccccc21 [Carbamazepine]
observed.measurement: 6960

###

- assay.notes: Equilibrium solubility of drug substance in media with solubilizer (excess drug, rotated 48 hours at room temperature, filtered, HPLC)
- Format: physicochemical
- study.conditions: 2% (w/v) crystalline methylated β-cyclodextrin in water, aqueous with cosolvent or surfactant or cyclodextrin, thermodynamic from solid, 2% (w/v) Cryst. Methylated β-CD, aqueous; read-out: Carbamazepine Solubility
quantity.kind: solubility at 48 h (µg/mL)

compound: NC(=O)N1c2ccccc2C=Cc2ccccc21 [Carbamazepine]
quantity.kind: solubility at 48 h
measurement.units: µg/mL
observed.measurement: 1540

###

- assay.notes: Equilibrium solubility of drug substance in media with solubilizer (excess drug, rotated 48 hours at room temperature, filtered, HPLC)
- Format: physicochemical
- study.conditions: 10% (w/v) HP-β-cyclodextrin in water, aqueous with cosolvent or surfactant or cyclodextrin, thermodynamic from solid, 10% (w/v) HP-β-cyclodextrin, aqueous; read-out: Carbamazepine Solubility
quantity.kind: solubility at 48 h (µg/mL)

compound: NC(=O)N1c2ccccc2C=Cc2ccccc21 [Carbamazepine]
measurement.units: µg/mL
observed.measurement: 6020

###

- assay.notes: Equilibrium solubility of drug substance in media with solubilizer (excess drug, rotated 48 hours at room temperature, filtered, HPLC)
- Type: physicochemical
- study.conditions: 10% (w/v) Cavasol W7M in water, aqueous with cosolvent or surfactant or cyclodextrin, thermodynamic from solid, 10% (w/v) Cavasol W7M, aqueous; read-out: Carbamazepine Solubility

compound: NC(=O)N1c2ccccc2C=Cc2ccccc21 [Carbamazepine]
solubility at 48 h: 5.25 mg/mL

###

- assay.notes: Equilibrium solubility of drug substance in media with solubilizer (excess drug, rotated 48 hours at room temperature, filtered, HPLC)
- Assay type: physicochemical
- study.conditions: 5% (w/v) Tween 80, aqueous, aqueous with cosolvent or surfactant or cyclodextrin, thermodynamic from solid, 5% (w/v) Tween 80, aqueous; read-out: Oxcarbazepine Solubility

compound: NC(=O)N1c2ccccc2CC(=O)c2ccccc21 [Oxcarbazepine]
solubility at 48 h [µg/mL]: 290

###

- assay.notes: Equilibrium solubility of drug substance in media with solubilizer (excess drug, rotated 48 hours at room temperature, filtered, HPLC)
- Assay type: physicochemical
- study.conditions: 7.5% (w/v) Cavasol W7M in water, aqueous with cosolvent or surfactant or cyclodextrin, thermodynamic from solid, 7.5% (w/v) Cavasol W7M, aqueous; read-out: Carbamazepine Solubility
quantity.kind: solubility at 48 h (µg/mL)

compound: NC(=O)N1c2ccccc2C=Cc2ccccc21 [Carbamazepine]
observed.measurement: 3760

###

- assay.notes: Equilibrium solubility of drug substance in media with solubilizer (excess drug, rotated 48 hours at room temperature, filtered, HPLC)
- Format: physicochemical
- study.conditions: water, thermodynamic from solid, water, 0% (w/v) solubilizer; read-out: Oxcarbazepine Solubility

molecule: NC(=O)N1c2ccccc2CC(=O)c2ccccc21 [Oxcarbazepine]
solubility at 48 h: 70 µg/mL

###

- assay.notes: Equilibrium solubility of drug substance in media with solubilizer (excess drug, rotated 48 hours at room temperature, filtered, HPLC)
- Format: physicochemical
- study.conditions: 20% (w/v) HP-β-cyclodextrin in water, aqueous with cosolvent or surfactant or cyclodextrin, thermodynamic from solid, 20% (w/v) HP-β-cyclodextrin, aqueous; read-out: Carbamazepine Solubility
quantity.kind: solubility at 48 h (mg/mL)

compound: NC(=O)N1c2ccccc2C=Cc2ccccc21 [Carbamazepine]
measurement.units: mg/mL
observed.measurement: 10.7
